Where these numbers come from: patent US20240336909

- targetOrTestSystem: AxCT mask27 EGFR EH104 L066 version 1
Would you kindly list Percent cleavage for each of these proteins?
# number only, unit % dropped from output

Consider the protein shown here: Matriptase (protein) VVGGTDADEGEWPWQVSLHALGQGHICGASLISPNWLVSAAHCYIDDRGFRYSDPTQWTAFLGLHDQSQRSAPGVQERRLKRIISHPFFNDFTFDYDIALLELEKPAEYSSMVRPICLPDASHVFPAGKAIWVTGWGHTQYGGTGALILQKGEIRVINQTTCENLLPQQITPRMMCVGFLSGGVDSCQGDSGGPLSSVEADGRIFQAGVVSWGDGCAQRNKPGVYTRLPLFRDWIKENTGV What is its recorded Percent cleavage?
0

Give its Percent cleavage value. Item: MMP-7 (protein) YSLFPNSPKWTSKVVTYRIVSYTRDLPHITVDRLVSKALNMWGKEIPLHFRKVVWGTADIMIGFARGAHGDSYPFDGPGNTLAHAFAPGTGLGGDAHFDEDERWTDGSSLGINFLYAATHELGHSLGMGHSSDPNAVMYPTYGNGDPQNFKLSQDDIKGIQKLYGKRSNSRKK
0

Reported Percent cleavage for Cathepsin G (protein) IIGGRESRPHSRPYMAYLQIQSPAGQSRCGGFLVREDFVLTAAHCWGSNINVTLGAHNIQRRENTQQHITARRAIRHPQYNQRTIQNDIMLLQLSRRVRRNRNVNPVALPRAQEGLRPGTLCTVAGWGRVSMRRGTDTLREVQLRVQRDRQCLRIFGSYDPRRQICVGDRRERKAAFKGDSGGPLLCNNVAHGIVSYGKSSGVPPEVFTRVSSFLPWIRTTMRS : what is it?
0

Fill blank: measured Percent cleavage of the protein Neutrophil Elastase (protein) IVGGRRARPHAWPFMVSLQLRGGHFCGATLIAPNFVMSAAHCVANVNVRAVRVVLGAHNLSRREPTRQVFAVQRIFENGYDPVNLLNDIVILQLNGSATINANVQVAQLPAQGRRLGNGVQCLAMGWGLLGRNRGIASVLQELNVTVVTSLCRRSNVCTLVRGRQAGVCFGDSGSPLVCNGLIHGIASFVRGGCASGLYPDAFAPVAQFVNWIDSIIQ is ____.
9

# query: Percent cleavage of entry MMP-12 (protein) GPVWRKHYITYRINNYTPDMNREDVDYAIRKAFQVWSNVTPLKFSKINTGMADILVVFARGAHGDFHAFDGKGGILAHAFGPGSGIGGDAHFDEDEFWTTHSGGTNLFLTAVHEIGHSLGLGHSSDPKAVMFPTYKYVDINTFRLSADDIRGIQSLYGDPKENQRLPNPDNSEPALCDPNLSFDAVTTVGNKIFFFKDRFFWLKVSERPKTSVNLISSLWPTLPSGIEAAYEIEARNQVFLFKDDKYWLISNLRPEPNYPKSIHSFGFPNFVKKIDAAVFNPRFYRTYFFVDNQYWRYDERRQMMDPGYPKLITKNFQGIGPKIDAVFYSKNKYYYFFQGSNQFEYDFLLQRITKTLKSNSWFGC
16

State the recorded Percent cleavage for this entry: MMP-1 (protein) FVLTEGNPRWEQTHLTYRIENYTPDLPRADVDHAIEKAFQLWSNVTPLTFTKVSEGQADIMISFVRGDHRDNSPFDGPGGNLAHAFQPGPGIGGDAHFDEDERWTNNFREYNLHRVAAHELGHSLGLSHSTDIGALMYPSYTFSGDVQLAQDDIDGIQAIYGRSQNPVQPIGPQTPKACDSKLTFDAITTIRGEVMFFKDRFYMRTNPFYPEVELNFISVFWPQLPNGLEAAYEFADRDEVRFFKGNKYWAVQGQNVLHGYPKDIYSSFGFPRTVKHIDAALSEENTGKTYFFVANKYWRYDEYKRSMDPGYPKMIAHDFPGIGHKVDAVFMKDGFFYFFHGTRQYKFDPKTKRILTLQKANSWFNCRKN
6
